Values compiled from a melting point compilation (Tetko et al.; mined from patent text by program, amines drawn as free bases though some values may be those of a salt).

compounds and their reported melting point

Here are 6 compounds together with their reported answers.
Oc1cc(-c2ccccc2)nc(O)n1 :: 195 to 200 °C
CCCCCCCCCCc1ccc(NC(=O)c2cccc(-c3ccccc3)c2O)cc1 :: 74 to 75 °C
CCn1c(OC)n[nH]c1=O :: 130 °C
COc1ccc(-n2cnc3c(-c4ccc(C(F)(F)F)cc4F)ncnc32)cc1 :: 181 to 183 °C
COc1ccc(N2CCN(CCC(O)COc3ccccc3)CC2)cc1 (stereo not given) :: 95 to 97 °C
NC(c1ccccc1)c1ccc(C(N)c2ccccc2)cc1 (stereo not given) :: 123 to 127 °C

Data request, read-out melting point, for CN1C(=O)C(NC(=O)Nc2ccc([N+](=O)[O-])cc2)N=C(c2ccccc2)c2ccccc21 (stereo not given)
292 to 293 °C

# lookup: melting point of `COc1cc(C=O)cc2c1OC1(C=C2Br)CCC1`
128 to 129 °C

Which melting point value is on record for `COc1ccc(Cl)c(Oc2c(C)nc(-c3ncccn3)nc2Cl)c1` ?
110 °C

// melting point lookup, key: `CCCCCCCCCCCCn1nnnc1NC(=O)Nc1c(C(C)C)cccc1C(C)C`
80 to 88 °C
